target: human BAFF (human, UniProt Q9Y275 82-285, limits assumed); assay: NNS library, phage display;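 note: ligand versus display occurrence-to-degeneracy ratio and higher means enriched by binding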
Sequence (Q9Y275 82-285 limits assumed): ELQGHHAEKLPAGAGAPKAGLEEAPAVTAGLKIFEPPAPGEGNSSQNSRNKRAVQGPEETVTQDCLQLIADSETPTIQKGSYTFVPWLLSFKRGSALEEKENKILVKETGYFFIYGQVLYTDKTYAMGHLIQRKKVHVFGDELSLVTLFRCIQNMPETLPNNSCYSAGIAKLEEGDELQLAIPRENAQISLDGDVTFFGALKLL
readout kind: F' BAFF
A bare number is all that is needed in reply.

Solved entries (count: 5):
| binder | readout kind | value reported |
| --- | --- | --- |
| SLSCRKEQGKWYDHLLRDCISCASICGQHPKQCAYFCENKLR (receptor, phage library variant, format as m9) [TACI_d2 F78W] | F' BAFF | 0 |
| SLSCRKEQGKFYDHLLADCISCASICGQHPKQCAYFCENKLR (receptor, phage library variant, format as m9) [TACI_d2 R84A] | F' BAFF | 3 |
| SLSCRKEQGKFYDHLLRDCISCASWCGQHPKQCAYFCENKLR (receptor, phage library variant, format as m9) [TACI_d2 I92W] | F' BAFF | 0 |
| SLSCRKEQGKFLDHLLRDCISCASICGQHPKQCAYFCENKLR (receptor, phage library variant, format as m9) [TACI_d2 Y79L] | F' BAFF | 1 |
| SLSCRKEQGKFADHLLRDCISCASICGQHPKQCAYFCENKLR (receptor, phage library variant, format as m9) [TACI_d2 Y79A] | F' BAFF | 0 |

We now examine a further binder.
Name the recorded F' BAFF for SLSCRKEQGKFYDHLLRDCISCASECGQHPKQCAYFCENKLR (receptor, phage library variant, format as m9) [TACI_d2 I92E] . 0
